List of Activity values.
species on record: Homo sapiens; assay: Suppression of okadaic acid-induced inhibition of PP1/PP2A in human SHSY-5Y cells at 0.1 uM using pNPP as substrate assessed as remaining Ser/Thr phosphatase activity incubated for 30 mins in presence of tyrosine phosphatase inhibitor sodium orthovanadate by colorimetric assay (reference value: 61 +/- 3%); format: cell-based
Provide only the numeric value, understood in %.

Check out these entries, answers already filled in.
entry_smiles=CN(C)Cc1c[nH]c2ccc(Br)cc12 numeric_readout=76
entry_smiles=CN(C)Cc1cn(CCCCN2CCCCC2)c2ccc(Br)cc12 numeric_readout=68
entry_smiles=Brc1ccc2c(c1)c(CN1CCCCC1)cn2Cc1ccccc1 numeric_readout=70

Any idea what its Activity is? The compound is `C#CCn1cc(CN(C)C)c2cc(Br)ccc21` 64

Further, for `ClCCCCn1cc(CN2CCCCC2)c2cc(Br)ccc21` ? 62

Then this compound: `Cc1ccc2c(c1)c(CN1CCCCC1)cn2CCCCN1CCCCC1` 70

Same question, `Cc1ccc2c(c1)c(CN(C)C)cn2Cc1ccccc1` this time 66

Same read-out for `C#CCn1cc(CN2CCCCC2)c2cc(C)ccc21` ? 66

Now try `Cc1ccc2c(c1)c(CN1CCCCC1)cn2Cc1ccccc1` . 78

Can you check `CCCCn1cc(CN2CCCCC2)c2cc(Br)ccc21` next? 79

Next up: `CCCCn1cc(CN2CCCCC2)c2cc(C)ccc21` 66

Then this compound: `Cc1ccc2[nH]cc(CN(C)C)c2c1` 77

Also `CCOC(=O)CCCn1cc(CN(C)C)c2cc(Br)ccc21` ? 66

Can you handle `Brc1ccc2[nH]cc(CN3CCCCC3)c2c1` next? 67

Ok, now `c1ccc2c(CN3CCCCC3)c[nH]c2c1` 79

---

test system: Voltage-gated calcium channel; test: Inhibition of VGCC in human SHSY-5Y cells assessed as reduction of K+-evoked cytosolic ca2+ at 1 uM incubated for 10 mins prior to KCl addition by Fluo-4-AM probe-based fluorescence analysis; type: cell-based
Measured quantity: inhibition (INH)

entry_smiles=Cc1ccc2c(c1)c(CN1CCCCC1)cn2CCCCCl result=35%
entry_smiles=Brc1ccc2c(c1)c(CN1CCCCC1)cn2CCCCN1CCCCC1 result=19%
entry_smiles=Cc1ccc2[nH]cc(CN(C)C)c2c1 result=10%
entry_smiles=C#CCn1cc(CN(C)C)c2cc(Br)ccc21 result=10%
entry_smiles=Cc1ccc2c(c1)c(CN(C)C)cn2CCCCN1CCCCC1 result=16%

May I ask what inhibition (INH) has been recorded for `Brc1ccc2c(c1)c(CN1CCCCC1)cn2Cc1ccccc1` ? 45%

Could you do the same for `C#CCn1cc(CN2CCCCC2)c2cc(C)ccc21` , please? 25%

Similarly, `c1ccc2c(CN3CCCCC3)c[nH]c2c1` ? 30%

Moving on to the next molecule: `Cc1ccc2[nH]cc(CN3CCCCC3)c2c1` 16%

---

species: Bos taurus; assay: Inhibition of VGCC in bovine chromaffin cells assessed as reduction in depolarization-evoked Ca2+ current at 1 uM at -80 mV holding potential using 50 millisec depolarization pulses every 20 secs by patch clamp method; assay type: cell-based
Calls of active or inactive are those of the source. No cut-off for these calls is given here.
Measured quantity: inhibition

These solved cases illustrate the format of a correct answer.
compound=Cc1ccc2c(c1)c(CN1CCCCC1)cn2Cc1ccccc1 result=40%
compound=Brc1ccc2c(c1)c(CN1CCCCC1)cn2Cc1ccccc1 result=Active
compound=CCCCn1cc(CN2CCCCC2)c2cc(Br)ccc21 result=Active
compound="CN(C)Cc1c[nH]c2ccccc12 [GRAMINE]" result=Active

Consider the additional compound presented here.
Dear colleague, I am looking for the recorded inhibition of the following compound: `CCCCn1cc(CN2CCCCC2)c2cc(C)ccc21` Active

---

Attribute: Activity
species: Homo sapiens; test: Suppression of okadaic acid-induced inhibition of PP1/PP2A in human SHSY-5Y cells at 0.1 uM using pNPP as substrate assessed as remaining Ser/Thr phosphatase activity incubated for 30 mins in presence of tyrosine phosphatase inhibitor sodium orthovanadate by colorimetric assay (reference value: 61 +/- 3%); format: cell-based

compound=CCCCn1cc(CN(C)C)c2cc(Br)ccc21 measured_quantity=Activity result=76%

For `Cc1ccc2[nH]cc(CN3CCCCC3)c2c1` , what is its reported Activity? 69%

Then `Brc1ccc2c(c1)c(CN1CCCCC1)cn2CCCCN1CCCCC1` ? 70%

What do you get for CN(C)Cc1c[nH]c2ccccc12 [GRAMINE] ? 76%

Field entry: `C#CCn1cc(CN(C)C)c2cc(C)ccc21` 74%

Would you kindly repeat that for `CN(C)Cc1cn(Cc2ccccc2)c2ccc(Br)cc12` ? 78%

What about this compound? `C#CCn1cc(CN2CCCCC2)c2cc(Br)ccc21` 72%

Same read-out for `Cc1ccc2c(c1)c(CN1CCCCC1)cn2CCCCCl` ? 62%

Do the same for `CCOC(=O)CCCn1cc(CN2CCCCC2)c2cc(Br)ccc21` please 71%

Entry to check: `Cc1ccc2c(c1)c(CN(C)C)cn2CCCCN1CCCCC1` 68%

Another: `CC12CC3CC(C)(C1)CC(N)(C3)C2` 78%

---

Recorded inhibition (INH) values for a group of compounds are listed next.
test system: Voltage-gated calcium channel; test: Inhibition of VGCC in human SHSY-5Y cells assessed as reduction of K+-evoked cytosolic ca2+ at 1 uM incubated for 10 mins prior to KCl addition by Fluo-4-AM probe-based fluorescence analysis; assay type: cell-based
Quick note: unit goes after the number.

entry_smiles=CN(C)Cc1cn(Cc2ccccc2)c2ccc(Br)cc12 result=38%
entry_smiles=CCOC(=O)CCCn1cc(CN(C)C)c2cc(Br)ccc21 result=13%
entry_smiles=CN(C)Cc1c[nH]c2ccccc12 result=25%

Now look at this one.
Form field: reported inhibition (INH) of `CN(C)Cc1c[nH]c2ccc(Br)cc12` 3%

---

system: Voltage-gated calcium channel; assay: Inhibition of VGCC in human SHSY-5Y cells assessed as reduction of K+-evoked cytosolic ca2+ at 1 uM incubated for 10 mins prior to KCl addition by Fluo-4-AM probe-based fluorescence analysis; format: cell-based
Measured quantity: inhibition (INH) (%)
The reply should contain only the number, in %.

Sample answers from the record:
entry_smiles=C#CCn1cc(CN(C)C)c2cc(C)ccc21 assayed_target="Voltage-gated calcium channel" numeric_readout=14
entry_smiles=Cc1ccc2c(c1)c(CN(C)C)cn2Cc1ccccc1 assayed_target="Voltage-gated calcium channel" numeric_readout=18
entry_smiles=CCOC(=O)CCCn1cc(CN2CCCCC2)c2cc(Br)ccc21 assayed_target="Voltage-gated calcium channel" numeric_readout=16
entry_smiles=Cc1ccc2c(c1)c(CN1CCCCC1)cn2CCCCN1CCCCC1 assayed_target="Voltage-gated calcium channel" numeric_readout=4
entry_smiles=CCCCn1cc(CN(C)C)c2cc(Br)ccc21 assayed_target="Voltage-gated calcium channel" numeric_readout=14
entry_smiles=CCCCn1cc(CN2CCCCC2)c2cc(Br)ccc21 assayed_target="Voltage-gated calcium channel" numeric_readout=63

I have this molecule here, `Cc1ccc2c(c1)c(CN1CCCCC1)cn2Cc1ccccc1` , and I need its recorded inhibition (INH). 22

Also `CCCCn1cc(CN2CCCCC2)c2cc(C)ccc21` , if possible. 21

Now consider `ClCCCCn1cc(CN2CCCCC2)c2cc(Br)ccc21` and answer again. 57

Follow-up entry: `Brc1ccc2[nH]cc(CN3CCCCC3)c2c1` 7

Same question, `C#CCn1cc(CN2CCCCC2)c2cc(Br)ccc21` this time 42

Next record, please: `CN(C)Cc1cn(CCCCN2CCCCC2)c2ccc(Br)cc12` 14

// data source = ChEMBL document CHEMBL4477210
